Source of measurements: paper PMC10135050

- system: NDM-1 (Klebsiella pneumoniae, UniProt C7C422)
- Sequence (C7C422 29-270, looked up, species assumed): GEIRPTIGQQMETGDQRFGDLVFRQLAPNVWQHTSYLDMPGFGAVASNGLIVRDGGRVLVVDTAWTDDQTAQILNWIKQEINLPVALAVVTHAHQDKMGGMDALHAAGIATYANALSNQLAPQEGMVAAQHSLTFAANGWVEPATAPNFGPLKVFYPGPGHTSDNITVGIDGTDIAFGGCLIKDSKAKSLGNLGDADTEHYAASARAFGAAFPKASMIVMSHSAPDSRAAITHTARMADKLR
assay_endpoint: Ki (µM)
Report the value in µM with no unit label.

(Q) Report Ki for CON=C(C(=O)NC1C(=O)N2C(C(=O)O)=C(COC(C)=O)CSC12)c1csc(NC(=O)CC(C(=O)OC)N2CCN(CC(=O)O)CCN(CC(=O)O)CC2)n1 (stereo in doubt) tested on NDM-1 (Klebsiella pneumoniae, UniProt C7C422).
(A) 35.3

---

- system: VIM-2 (Escherichia coli, UniProt Q5U7L7)
assay_endpoint: pKi
# log scale: pKi equals minus log10 of the concentration in mol/L

(Q) Recorded pKi of CON=C(C(=O)NC1C(=O)N2C(C(=O)O)=C(COC(C)=O)CSC12)c1csc(NC(=O)CC(C(=O)OC)N2CCN(CC(=O)O)CCN(CC(=O)O)CC2)n1 (stereo in doubt) [BP2] , please.
(A) 4.51

---

- test_summary: Plasma drug concentrations in the in vivo efficacy study
- assay_context: male, mouse, 6 h, 100 mg/kg IP every two hours, infected BALB/c mice
assay_endpoint: concentration at 6 h (ng/mL)
Report the value in ng/mL with no unit label.

- molecule: "C[C@@H](O)[C@H]1C(=O)N2C(C(=O)O)=C(S[C@@H]3CN[C@H](C(=O)N(C)C)C3)[C@H](C)[C@H]12"
  concentration at 6 h, ng/mL: 14900

In the following, a different molecule is considered.
(Q) Recorded concentration at 6 h of CON=C(C(=O)NC1C(=O)N2C(C(=O)O)=C(COC(C)=O)CSC12)c1csc(NC(=O)CC(C(=O)OC)N2CCN(CC(=O)O)CCN(CC(=O)O)CC2)n1 (stereo in doubt) , please.
(A) 4430

---

- test_summary: Plasma drug concentrations in the in vivo efficacy study
- assay_context: male, mouse, 8 h, 100 mg/kg IP every two hours, infected BALB/c mice
Measured concentration at 8 h, listed per entry.
Report the value in ng/mL with no unit label.

- compound: "C[C@@H](O)[C@H]1C(=O)N2C(C(=O)O)=C(S[C@@H]3CN[C@H](C(=O)N(C)C)C3)[C@H](C)[C@H]12 [Meropenem]"
  value_measured: 8840

In the following, a different compound is considered.
(Q) Recorded concentration at 8 h of CON=C(C(=O)NC1C(=O)N2C(C(=O)O)=C(COC(C)=O)CSC12)c1csc(NC(=O)CC(C(=O)OC)N2CCN(CC(=O)O)CCN(CC(=O)O)CC2)n1 (stereo in doubt) [BP2] , please.
(A) 3490
